# Test system: E. faecium CL 4931 (VanA)
# Protocol Summary: microbe, parasite or virus in culture
# Format: cell-based
# Parameters: unit not given here
# Stated Conditions: Tables 7 and 8; unit not given

{"columns": ["Compound", "Readout Qualifier", "CL4931 (in vitro testing)"],
 "data": [
  ["CNC(CC(C)C)C(=O)NC1C(=O)NC(CC(N)=O)C(=O)NC2C(=O)NC3C(=O)NC(C(=O)NC(C(=O)O)c4cc(O)cc(O)c4-c4cc3ccc4O)C(O)c3ccc(c(Cl)c3)Oc3cc2cc(c3OC2OC(CN)C(O)C(O)C2OC2CC(C)(NCc3ccc(Oc4ccc(Cl)c(Cl)c4)cc3)C(O)C(C)O2)Oc2ccc(cc2Cl)C1O (stereo not shown) [Compound 186]", "=", 8],
  ["CNC(CC(C)C)C(=O)NC1C(=O)NC(CC(N)=O)C(=O)NC2C(=O)NC3C(=O)NC(C(=O)NC(C(=O)O)c4cc(O)cc(O)c4-c4cc3ccc4O)C(O)c3ccc(c(Cl)c3)Oc3cc2cc(c3OC2OC(CNCC3CCCCN3)C(O)C(O)C2OC2CC(C)(NCc3ccc(OCc4ccc(Cl)c(Cl)c4)cc3)C(O)C(C)O2)Oc2ccc(cc2Cl)C1O (stereo not shown) [Compound 140]", "=", 4],
  ["CNC(CC(C)C)C(=O)NC1C(=O)NC(CC(N)=O)C(=O)NC2C(=O)NC3C(=O)NC(C(=O)NC(C(=O)O)c4cc(O)cc(O)c4-c4cc3ccc4O)C(O)c3ccc(c(Cl)c3)Oc3cc2cc(c3OC2OC(CNCC3CCCCO3)C(O)C(O)C2OC2CC(C)(NCc3ccc(OCc4ccc(Cl)c(Cl)c4)cc3)C(O)C(C)O2)Oc2ccc(cc2Cl)C1O (stereo not shown) [Compound 156]", "=", 16],
  ["CNC(CC(C)C)C(=O)NC1C(=O)NC(CC(N)=O)C(=O)NC2C(=O)NC3C(=O)NC(C(=O)NC(C(=O)O)c4cc(O)cc(O)c4-c4cc3ccc4O)C(O)c3ccc(c(Cl)c3)Oc3cc2cc(c3OC2OC(CNCc3ccccc3Cl)C(O)C(O)C2OC2CC(C)(NCc3ccc(OCc4ccc(Cl)c(Cl)c4)cc3)C(O)C(C)O2)Oc2ccc(cc2Cl)C1O (stereo not shown) [Compound 153]", "=", 8],
  ["CNC(CC(C)C)C(=O)NC1C(=O)NC(CC(N)=O)C(=O)NC2C(=O)NC3C(=O)NC(C(=O)NC(C(=O)O)c4cc(O)cc(O)c4-c4cc3ccc4O)C(O)c3ccc(c(Cl)c3)Oc3cc2cc(c3OC2OC(CN)C(O)C(O)C2OC2CC(C)(NCc3ccc(OCc4ccc(Cl)c(Cl)c4)cc3Cl)C(O)C(C)O2)Oc2ccc(cc2Cl)C1O (stereo not shown) [Compound 183]", "=", 8],
  ["CNC(CC(C)C)C(=O)NC1C(=O)NC(CC(N)=O)C(=O)NC2C(=O)NC3C(=O)NC(C(=O)NC(C(=O)O)c4cc(O)cc(O)c4-c4cc3ccc4O)C(O)c3ccc(c(Cl)c3)Oc3cc2cc(c3OC2OC(CN)C(O)C(O)C2OC2CC(C)(NCc3ccc(OCc4ccccc4Cl)cc3)C(O)C(C)O2)Oc2ccc(cc2Cl)C1O (stereo not shown) [Compound 182]", ">", 16],
  ["CNC(CC(C)C)C(=O)NC1C(=O)NC(CC(N)=O)C(=O)NC2C(=O)NC3C(=O)NC(C(=O)NC(C(=O)O)c4cc(O)cc(O)c4-c4cc3ccc4O)C(O)c3ccc(c(Cl)c3)Oc3cc2cc(c3OC2OC(CNCCO)C(O)C(O)C2OC2CC(C)(NCc3ccc(OCc4ccc(Cl)c(Cl)c4)cc3)C(O)C(C)O2)Oc2ccc(cc2Cl)C1O (stereo not shown) [Compound 146]", "=", 8]
]}

====

# Test system: CL 4931, CL 5053, CL 5242 and CL 4877
# Assay type: cell-based, E. faecium, E. faecalis
# Stated Conditions: mean of CL4931, CL5053, CL5242, CL4877; unit not given
Readout Name: Mean

{"columns": ["Compound", "Quantitative Result"],
 "data": [
  ["CNC(CC(C)C)C(=O)NC1C(=O)NC(CC(N)=O)C(=O)NC2C(=O)NC3C(=O)NC(C(=O)NC(C(=O)O)c4cc(O)cc(O)c4-c4cc3ccc4O)C(O)c3ccc(c(Cl)c3)Oc3cc2cc(c3OC2OC(CN3CCCCC3)C(O)C(O)C2OC2CC(C)(NCc3ccc(OCc4ccc(Cl)c(Cl)c4)cc3)C(O)C(C)O2)Oc2ccc(cc2Cl)C1O (stereo not drawn) [Compound 168]", 18.3],
  ["CNC(CC(C)C)C(=O)NC1C(=O)NC(CC(N)=O)C(=O)NC2C(=O)NC3C(=O)NC(C(=O)NC(C(=O)O)c4cc(O)cc(O)c4-c4cc3ccc4O)C(O)c3ccc(c(Cl)c3)Oc3cc2cc(c3OC2OC(CNCC3CCCCN3)C(O)C(O)C2OC2CC(C)(NCc3ccc(OCc4ccc(Cl)c(Cl)c4)cc3)C(O)C(C)O2)Oc2ccc(cc2Cl)C1O (stereo not drawn) [Compound 140]", 3.6],
  ["CNC(CC(C)C)C(=O)NC1C(=O)NC(CC(N)=O)C(=O)NC2C(=O)NC3C(=O)NC(C(=O)NC(C(=O)O)c4cc(O)cc(O)c4-c4cc3ccc4O)C(O)c3ccc(c(Cl)c3)Oc3cc2cc(c3OC2OC(CN3CCOCC3)C(O)C(O)C2OC2CC(C)(NCc3ccc(OCc4ccc(Cl)c(Cl)c4)cc3)C(O)C(C)O2)Oc2ccc(cc2Cl)C1O (stereo not drawn) [Compound 169]", 18.3],
  ["CNC(CC(C)C)C(=O)NC1C(=O)NC(CC(N)=O)C(=O)NC2C(=O)NC3C(=O)NC(C(=O)NC(C(=O)O)c4cc(O)cc(O)c4-c4cc3ccc4O)C(O)c3ccc(c(Cl)c3)Oc3cc2cc(c3OC2OC(CN)C(O)C(O)C2OC2CC(C)(NCc3ccc(OCc4ccccc4Cl)cc3)C(O)C(C)O2)Oc2ccc(cc2Cl)C1O (stereo not drawn) [Compound 182]", 13],
  ["CNC(CC(C)C)C(=O)NC1C(=O)NC(CC(N)=O)C(=O)NC2C(=O)NC3C(=O)NC(C(=O)NC(C(=O)O)c4cc(O)cc(O)c4-c4cc3ccc4O)C(O)c3ccc(c(Cl)c3)Oc3cc2cc(c3OC2OC(CN)C(O)C(O)C2OC2CC(C)(NCc3ccc(OCc4ccc(C(F)(F)F)cc4)cc3)C(O)C(C)O2)Oc2ccc(cc2Cl)C1O (stereo not drawn) [Compound 179]", 3.25],
  ["CNC(CC(C)C)C(=O)NC1C(=O)NC(CC(N)=O)C(=O)NC2C(=O)NC3C(=O)NC(C(=O)NC(C(=O)O)c4cc(O)cc(O)c4-c4cc3ccc4O)C(O)c3ccc(c(Cl)c3)Oc3cc2cc(c3OC2OC(CNCCCN)C(O)C(O)C2OC2CC(C)(NCc3ccc(OCc4ccc(Cl)c(Cl)c4)cc3)C(O)C(C)O2)Oc2ccc(cc2Cl)C1O (stereo not drawn) [Compound 161]", 13.0]
]}
